Molecular target: von Willebrand factor (VWF) (Homo sapiens, UniProt P04275 P04275:764-2813)
Experiment: filter; Bmax 52%; 2 mM CaCl2, 37 C
Settings: tags: factor VIII free, Haematologic Technologies Inc; label: 5'-32P
PROPERTY_NAME: pKd
Friendly reminder that pKd comes from taking -log10 of the concentration in mol/L.

I am curious: what pKd value has been reported for ACGAACUGCCCUCGACUUAUGUCGACGCACAGACGU (ssRNA, 2'-F C and U; 2'-OH A and G; 3' idT) [T48] ?
7.92

Another binder: ACGAACUGCCCUGAUUAUUCACGCACAGACGU (ssRNA, 2'-F C and U; 2'-OH A and G; 3' idT) [T69]
7.59
